Could you please report measured AI Diff. for the items listed next?
# System: serum lipids and serum lipid hydroperoxide
# method: Pharmacological test method B for anti-hyperlipidemic activity (serum lipids, 4 weeks feeding)
# Type: in vivo, male Wistar strain rats
# Design: unit not given here
# condition.label: versus control group
# Protocol: Pharmacological test method B for anti-hyperlipidemic acitivity (the term "method B" was used in the present specification) Male Wistar strain rats (100±1 g, each 8 rats were formed into a group except that the control group fed with a hyperlipidemic diet was formed of 16 rats) were used as test animals. A powdery diet (CE-2, supplied by Clea Japan, Inc.) was used as ordinary diet. […] Then, TC, HDL-C, TG, PL, and LPO in the serum were measured in the following manner. […]
Lab note: record the figure alone, no unit after it.

Inquiry: Find the recorded AI Diff. belonging to COc1cc(C=CC(=O)OC2CCC34CC35CCC3(C)C(C(C)CCC(C)=C(C)C)CCC3(C)C5CCC4C2(C)C)ccc1N (stereo not shown) and report it.
Reply text: -22.35

Inquiry: Find the recorded AI Diff. belonging to CCC(=O)Oc1ccc(C=C(C)C(=O)OC2CCC34CC35CCC3(C)C(C(C)CCC=C(C)C)CCC3(C)C5CCC4C2(C)C)cc1OC (stereo not shown) and report it.
Reply text: -15.96

Inquiry: Find the recorded AI Diff. belonging to COc1cc(C=C(C)C(=O)OC2CCC34CC35CCC3(C)C(C(C)CCC=C(C)C)CCC3(C)C5CCC4C2(C)C)ccc1O (stereo not shown) and report it.
Reply text: -17.05

Inquiry: Find the recorded AI Diff. belonging to COc1cc(C=C(C)C(=O)OC2CCC34CC35CCC3(C)C(C(C)CCC(C)=C(C)C)CCC3(C)C5CCC4C2(C)C)ccc1O (stereo not shown) and report it.
Reply text: -20.48

----------
# method: Body weight of rats in method B
# Design: species or system male Wistar strain rats
# condition.label: rat, in vivo
endpoint: Body weight during feed period, 8th day
Write the numeric value and append its unit.

Inquiry: Find the recorded Body weight during feed period, 8th day belonging to COc1cc(C=C(C)C(=O)OC2CCC34CC35CCC3(C)C(C(C)CCC=C(C)C)CCC3(C)C5CCC4C2(C)C)ccc1N (stereo not drawn) and report it.
Reply text: 142 ± 8.1 g

Inquiry: Find the recorded Body weight during feed period, 8th day belonging to C=C(CCC(C)C1CCC2(C)C3CCC4C(C)(C)C(OC(=O)C(C)=Cc5cc(N)ccc5OCCC)CCC45CC35CCC12C)C(C)C (stereo not drawn) and report it.
Reply text: 142 ± 8.4 g

Inquiry: Find the recorded Body weight during feed period, 8th day belonging to COc1cc(C=C(C)C(=O)OC2CCC34CC35CCC3(C)C(C(C)CCC(C)=C(C)C)CCC3(C)C5CCC4C2(C)C)ccc1O (stereo not drawn) and report it.
Reply text: 146 ± 10.0 g

Inquiry: Find the recorded Body weight during feed period, 8th day belonging to CCCOc1cc(C=C(C)C(=O)OC2CCC34CC35CCC3(C)C(C(C)CCC=C(C)C)CCC3(C)C5CCC4C2(C)C)ccc1O (stereo not drawn) and report it.
Reply text: 149 ± 11.0 g

Inquiry: Find the recorded Body weight during feed period, 8th day belonging to CCC(=Cc1ccc(O)cc1)C(=O)OC1CCC23CC24CCC2(C)C(C(C)CCC=C(C)C)CCC2(C)C4CCC3C1(C)C (stereo not drawn) and report it.
Reply text: 144 ± 9.3 g

Inquiry: Find the recorded Body weight during feed period, 8th day belonging to COc1ccc(N)cc1C(=O)OC1CCC23CC24CCC2(C)C(C(C)CCC(C)=C(C)C)CCC2(C)C4CCC3C1(C)C (stereo not drawn) and report it.
Reply text: 142 ± 10.5 g
